test system: Caco-2; test: Cytotoxicity against human Caco2 cells assessed as cell viability after 24 hrs by MTT assay; assay type: functional, cell-based; details: Caco-2, 24 h
outcome.measure: IC50

Reference set, count: 2
>>> df
                               smiles_entry  outcome_measure     result
0  CC(=O)O[C@@H]1C[C@@H]2C[C@@H](N=[N+]=[N-])CC[C@]2(C)[C@H]2CC[C@]3(C)[C@@H]([C@H](C)CCC(=O)O)CC[C@H]3[C@H]12             IC50    15.6 µM
1  C[C@H](CCC(=O)NC1CCCCC1)[C@H]1CC[C@H]2[C@@H]3CC[C@@H]4C[C@@H](N=[N+]=[N-])CC[C@]4(C)[C@H]3CC[C@]12C             IC50  > 1000 µM

Kindly review the next compound as well.
## Task Recorded IC50 of C[C@H](CCC(=O)NCc1ccccc1)[C@H]1CC[C@H]2[C@@H]3CC[C@@H]4C[C@@H](N=[N+]=[N-])CC[C@]4(C)[C@H]3CC[C@]12C , please.
## Result > 100 µM
